Tested on: U-251
Run Description: NCI tumour cell line growth inhibition, 48 h
The source made the active and inactive calls. Rule as the data show it: active = GI50 up to about 1.1 µM and inactive = higher.
Metric: GI50

CCc1cccc(C(C)(C)C)c1NC(=S)N/C=C(/C#N)C(N)=O; > 100 µM (inactive)

Now look at this entry.
Request: Name the recorded GI50 for COc1cc(Br)c(/C=N/N=C(\N)NO)cc1OC .
Response: 23.4 µM (inactive)

* * *

System: KM-20L2
Run Description: NCI tumour cell line growth inhibition, 48 h
Activity calls are given as the source filed them. No stated cut-off is given here; in the data, active = GI50 up to about 1.1 µM and inactive = higher.
Write down the outcome that applies. Available outcomes: 1.0 (active), 0.0 (inactive)

CCn1cnc2c(=S)nc(N)[nH]c21; 0.0
Cc1cc([N+](=O)[O-])c(S(=O)(=O)c2ccccc2)c([N+](=O)[O-])c1; 0.0
O=C(c1ccccc1)C(C(=O)c1ccccc1)C1(O)C(=O)c2ccccc2C1=O; 0.0
CC(=O)O[C@H]1C(=O)[C@@]2(C)C([C@H](OC(=O)c3ccccc3)[C@]3(O)C[C@H](OC(=O)[C@H](O)[C@@H](NC(=O)c4ccc(Cl)cc4)c4ccccc4)C(C)=C1C3(C)C)C1(OC(C)=O)CO[C@@H]1C[C@@H]2O (stereo partly drawn); 1.0
CN(C)NC1=C([N+](=O)[O-])C=NN(c2ccccc2)C1; 0.0
CC1CC(C)C(=O)C(C(=O)CC2CC(=O)NC2=O)C1 (stereo not drawn); 0.0

Request: Hey, what did the test say about CCNC(=O)c1ccc(C)c(/N=N/N(C)C)c1 ?
Response: 0.0

Request: State the result this test recorded for Oc1c(CNCCCN2CCCC2)cc(Cl)c2cccnc12 .
Response: 0.0

* * *

Tested on: K562
Run Description: NCI tumour cell line growth inhibition, 48 h
The source made the active and inactive calls. Cut-off read from the data, not from the text of the source: active = GI50 up to about 1.1 µM and inactive = higher.
Thanks in advance; please answer with one of these: 1 (yes) (active), 0 (no) (inactive)

A selection of reference data follows.
O=C(O)CSc1nnc(-c2ccco2)[nH]1; 0 (no)
COC(=O)CCC(C)C1CCC2C3CCC4CC5CCC4(C)C3(O5)C(Br)C(Br)C12C (stereo unspecified); 0 (no)
COc1ccc(Cc2c(-c3ccc(C)cc3)n[nH]c(=O)c2C2C(=O)N(c3ccccc3)N=C2c2ccccc2)cc1 (stereo unspecified); 0 (no)
c1cc(C2=NCCO2)c2ccsc2c1; 0 (no)
CN1c2ccccc2S(=O)(=O)n2c(CCc3ccccc3)nnc21; 0 (no)
O=[N+]([O-])c1cc(Cl)cnc1Br; 0 (no)
COc1cc(Br)c(/C=N/N=C(\N)NO)cc1OC; 0 (no)
O=C(c1ccc(Cl)cc1)c1ccc(OCCCOc2ccc(C(=O)c3ccc(Cl)cc3)cc2)cc1; 0 (no)
Cc1c(CCCl)c(Cl)n2c(nc3ccccc32)c1C#N; 1 (yes)
CCc1n[nH]c(=O)n1/N=C/c1ccc(/C=N/n2c(CC)n[nH]c2=O)cc1; 0 (no)

Now let's try a different one.
Request: Given O=C(O/N=C1/CCC/C1=C\c1ccccc1)c1ccc(Cl)c(Cl)c1 , state the outcome it received in this test.
Response: 0 (no)

* * *

Test system: HOP-92
Run Description: NCI tumour cell line growth inhibition, 48 h
Active and inactive are the calls of the source. Rule as the data show it: active = GI50 up to about 1.1 µM and inactive = higher.
Form entry, call: pick from active, inactive

Answered cases to consult:
CCOC(=O)Cn1c(=O)c2cc(C)cc3c(Cl)nc4c(OC)c(OC)cc1c4c32; inactive
CCOC(=O)C1=C(C)N(Cc2ccccc2)C2(O)C(OC)CC(=O)C3C(=O)N(c4ccccc4)C(=O)C132 (configuration not stated); inactive
Cc1cc(O)c(C(C)C)cc1/N=C/c1ccccc1O; active

Request: Outcome logged for CC(=O)OC(C)(C)/C=C/C(=O)[C@](C)(O)[C@H]1[C@H](O)C[C@@]2(C)[C@@H]3CC=C4[C@@H](C[C@H](O)C(=O)C4(C)C)[C@]3(CO)C(=O)C[C@]12C [CUCURBITACIN A] in this assay:
Response: active

Request: Assay outcome for CC1OC(O[C@H]2CC[C@]3(C=O)[C@H]4CC[C@]5(C)[C@H](C6=CC(=O)OC6)CC[C@]5(O)[C@@H]4C=C[C@]3(O)C2)CC(O)C1O (some centres not stated) : what was it?
Response: active

Request: Hello, I am checking results. What call was entered for CC1OC(OC2C(O[C@H]3CC[C@@]4(C)C(=CC[C@H]5[C@@H]6C[C@@H]7O[C@]8(CC[C@@H](C)CO8)[C@@H](C)[C@@H]7[C@@]6(C)CC[C@@H]54)C3)OC(CO)C(O)C2O)C(O)C(O)C1O (some centres not stated) ?
Response: inactive

Request: I'd appreciate the recorded outcome for C[N+](C)=C/C=C(\Cl)c1ccc2ccccc2c1 from this test.
Response: inactive

* * *

List of GI50 values.
System: OVCAR-5
Run Description: NCI tumour cell line growth inhibition, 48 h
The source made the active and inactive calls. Cut-off read from the data, not from the text of the source: active = GI50 up to about 1.1 µM and inactive = higher.

Solved entries (count: 3):
COc1cccc(N(CN2C(=O)CCC2C(=O)O)C(C)=O)c1 (stereo unspecified); > 100 µM (inactive)
Cc1[nH]n(-c2ncc(C#N)c(=O)[nH]2)c(=O)c1CCO; > 100 µM (inactive)
CCOC(=O)/C(C#N)=C/c1ccc2c(c1)CC1(C2)Cc2cc(CC)c(C(C)O)cc2C1 (stereo unspecified); 33 µM (inactive)

Request: Using the record for COc1cc(CNc2ccc(SC)cc2)cc(OC)c1OC , report its GI50.
Response: 17.2 µM (inactive)

Request: Fill blank: measured GI50 of the compound O=C1C=CC(=O)c2c1ccc1c3ccccc3n(CCCCCCCCCCCCn3c4ccccc4c4ccc5c(c43)C(=O)C=CC5=O)c21 is ____.
Response: > 100 µM (inactive)

* * *

Test system: OVCAR-8
Run Description: NCI tumour cell line growth inhibition, 48 h
Calls of active or inactive are those of the source. Rule as the data show it: active = GI50 up to about 1.1 µM and inactive = higher.
Hi! Could you answer with just one of these? t = active, f = inactive

Reference set, count: 9
COc1cccc2c1C(=O)c1c(O)c3c(c(O)c1C2=O)C[C@@](O)(C(=O)CO)C[C@@H]3OC1CC(N2CCOCC2)C(O)C(C)O1 (stereo not given in full); t
COC(=O)C(CCC#N)(CCC#N)C(=O)OC; f
Nc1nc(SCCc2ccccc2)c2nc[nH]c2n1; f
O=c1oc(=O)c2oc3ccccc3oc1=2; f
CC(=O)OCC1OC(Nn2c(=O)[nH]c3ccccc3c2=O)C(OC(C)=O)C(OC(C)=O)C1OC(C)=O (stereo not given); f
COc1cc(/C=C2\N=C(c3ccccc3)N(c3ccc(C(=O)c4ccccc4)cc3N3C(=O)/C(=C/c4cc(OC)c(OC)c(OC)c4)N=C3c3ccccc3)C2=O)cc(OC)c1OC; f
NC(CCCCCCCCCCP(=O)(O)O)C(=O)O (stereo not given); f
CSc1ccn(C2CC(F)C(CO)O2)c(=O)n1 (stereo not given); f
O=C(O)/C=C\C(=O)c1ccc(Cl)cc1; f

Now take the following compound into account.
Request: Returns: the outcome recorded for CSCCCNC(=O)c1csc(-c2csc(CCNC(=O)CNC(=O)OC(C)(C)C)n2)n1 in this assay.
Response: f

* * *

Test system: U-251
Run Description: NCI tumour cell line growth inhibition, 48 h
Activity calls are given as the source filed them. Cut-off read from the data, not from the text of the source: active = GI50 up to about 1.1 µM and inactive = higher.
Could you please pick one outcome from this set? active, inactive

Solved entries (count: 3):
COc1cccc(/C=C2\N=C(Cl)OC2=O)c1O; inactive
COc1cccc(-c2cc(O)c3cc(OC)ccc3n2)c1; active
OCC(O)COc1c(Cl)ccc(Cl)c1Cl (configuration not stated); inactive

Request: Any idea what this test logged for CN1c2ccccc2S(=O)(=O)n2c(CCc3ccccc3)nnc21 ?
Response: inactive

Request: Record request — test call for CC1(C)O[C@@H]([C@@H](O)[C@H](O)C2SCCCS2)[C@@H](CO)O1
Response: inactive

Request: Hey, what did the test say about CSCCCNC(=O)c1csc(-c2csc(CCNC(=O)CNC(=O)OC(C)(C)C)n2)n1 ?
Response: inactive

Request: Give the logged outcome of this assay for the following compound: Nc1nc(Nc2ccccc2)c2[nH]cnc2n1
Response: inactive

* * *

Test system: SF-295
Run Description: NCI tumour cell line growth inhibition, 48 h
Calls of active or inactive are those of the source. No stated cut-off is given here; in the data, active = GI50 up to about 1.1 µM and inactive = higher.
Returns: one label drawn from y = active, n = inactive

Oc1ccc2cc(Br)ccc2c1-c1c(O)ccc2ccc(Br)cc12; n

Now let's try a different one.
Request: Dear colleague, could you share the recorded outcome for Cc1ccc(/N=N/NCCCCN)cc1 when you have a moment?
Response: n

* * *

System: SK-OV-3
Run Description: NCI tumour cell line growth inhibition, 48 h
Active and inactive are the calls of the source. Cut-off read from the data, not from the text of the source: active = GI50 up to about 1.1 µM and inactive = higher.
Metric: GI50

// worked examples, GI50 included
CCOC(=O)[C@@H]1CCN2CN(c3ccc(OC)cc3)N=C(c3ccccc3)[C@@]12c1ccccc1; 44 µM (inactive)
COC(=S)OC1CC(n2cnc3c(N)ncnc32)OC1CO[Si](C)(C)C(C)(C)C (centres undefined); 24 µM (inactive)
O=C(O)CNc1ncc2c(n1)-c1ccccc1OC2; > 100 µM (inactive)

Please turn your attention to the following entry.
Request: Looking for the measured GI50 of CC(=O)OC(C)(C)/C=C/C(=O)[C@](C)(O)[C@H]1[C@H](O)C[C@@]2(C)[C@@H]3CC=C4[C@@H](C[C@H](O)C(=O)C4(C)C)[C@]3(CO)C(=O)C[C@]12C , can you help?
Response: 0.391 µM (active)
